# tgt: EGFR (human), P00533 [WT]
# Sequence (P00533 whole entry, looked up): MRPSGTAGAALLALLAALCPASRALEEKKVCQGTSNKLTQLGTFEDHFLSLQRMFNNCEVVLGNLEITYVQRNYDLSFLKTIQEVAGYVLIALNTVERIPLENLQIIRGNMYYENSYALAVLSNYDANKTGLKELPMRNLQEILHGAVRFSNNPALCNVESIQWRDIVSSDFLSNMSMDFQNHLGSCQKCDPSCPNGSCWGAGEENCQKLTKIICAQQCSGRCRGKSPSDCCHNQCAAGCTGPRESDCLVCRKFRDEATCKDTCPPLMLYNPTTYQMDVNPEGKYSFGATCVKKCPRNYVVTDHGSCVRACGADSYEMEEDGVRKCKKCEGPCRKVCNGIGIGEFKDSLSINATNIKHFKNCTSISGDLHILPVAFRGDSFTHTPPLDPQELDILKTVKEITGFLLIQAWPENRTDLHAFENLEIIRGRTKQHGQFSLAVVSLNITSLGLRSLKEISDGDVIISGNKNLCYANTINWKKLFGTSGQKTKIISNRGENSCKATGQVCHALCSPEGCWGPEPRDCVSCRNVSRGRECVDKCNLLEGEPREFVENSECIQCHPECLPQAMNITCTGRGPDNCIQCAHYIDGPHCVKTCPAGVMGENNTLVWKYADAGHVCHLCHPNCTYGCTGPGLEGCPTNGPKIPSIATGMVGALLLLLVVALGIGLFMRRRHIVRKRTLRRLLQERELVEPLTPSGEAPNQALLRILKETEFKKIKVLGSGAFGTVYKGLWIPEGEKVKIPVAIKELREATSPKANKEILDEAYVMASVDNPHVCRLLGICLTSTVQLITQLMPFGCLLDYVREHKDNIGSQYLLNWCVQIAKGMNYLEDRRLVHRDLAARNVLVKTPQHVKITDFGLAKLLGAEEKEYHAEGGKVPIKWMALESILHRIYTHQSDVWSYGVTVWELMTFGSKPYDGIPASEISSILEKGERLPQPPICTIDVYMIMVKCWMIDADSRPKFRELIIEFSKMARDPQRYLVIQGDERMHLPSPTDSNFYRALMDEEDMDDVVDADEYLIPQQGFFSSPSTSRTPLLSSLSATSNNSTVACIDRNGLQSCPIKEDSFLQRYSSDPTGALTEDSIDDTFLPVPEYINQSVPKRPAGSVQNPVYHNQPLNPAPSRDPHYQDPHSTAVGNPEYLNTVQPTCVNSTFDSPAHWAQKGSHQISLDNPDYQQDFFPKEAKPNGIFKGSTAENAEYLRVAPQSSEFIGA
# experimentalContext: a431
metricName: IC50 (nM)

I. C=CC(=O)Nc1ccc(OC)c(Nc2ncc(Cl)c(Nc3ccccc3C(=O)C(=O)N(CC)CC)n2)c1
II. C=CC(=O)Nc1ccc(OC)c(Nc2ncc(Cl)c(Nc3ccccc3C(=O)C(=O)N(C)C)n2)c1
III. COc1cc(Nc2ncc(Cl)c(Nc3ccccc3C(=O)C(=O)N(C)C)n2)ccc1N1CCC(N(C)C)CC1
IV. C=C(CN(C)CCN(C)C)C(=O)Nc1ccc(OC)c(Nc2ncc(Cl)c(Nc3ccccc3C(=O)C(=O)N(C)C)n2)c1
Task: Rank ascending by IC50. Present the labels in the sequence the task asks for.
Result: III, II, IV, I
(III: 10 nM, II: 110 nM, IV: 210 nM, I: 750 nM)

###

# tgt: EGFR (Human), P00533 [T790M/L858R]
# Sequence (P00533 whole entry T790M/L858R, looked up): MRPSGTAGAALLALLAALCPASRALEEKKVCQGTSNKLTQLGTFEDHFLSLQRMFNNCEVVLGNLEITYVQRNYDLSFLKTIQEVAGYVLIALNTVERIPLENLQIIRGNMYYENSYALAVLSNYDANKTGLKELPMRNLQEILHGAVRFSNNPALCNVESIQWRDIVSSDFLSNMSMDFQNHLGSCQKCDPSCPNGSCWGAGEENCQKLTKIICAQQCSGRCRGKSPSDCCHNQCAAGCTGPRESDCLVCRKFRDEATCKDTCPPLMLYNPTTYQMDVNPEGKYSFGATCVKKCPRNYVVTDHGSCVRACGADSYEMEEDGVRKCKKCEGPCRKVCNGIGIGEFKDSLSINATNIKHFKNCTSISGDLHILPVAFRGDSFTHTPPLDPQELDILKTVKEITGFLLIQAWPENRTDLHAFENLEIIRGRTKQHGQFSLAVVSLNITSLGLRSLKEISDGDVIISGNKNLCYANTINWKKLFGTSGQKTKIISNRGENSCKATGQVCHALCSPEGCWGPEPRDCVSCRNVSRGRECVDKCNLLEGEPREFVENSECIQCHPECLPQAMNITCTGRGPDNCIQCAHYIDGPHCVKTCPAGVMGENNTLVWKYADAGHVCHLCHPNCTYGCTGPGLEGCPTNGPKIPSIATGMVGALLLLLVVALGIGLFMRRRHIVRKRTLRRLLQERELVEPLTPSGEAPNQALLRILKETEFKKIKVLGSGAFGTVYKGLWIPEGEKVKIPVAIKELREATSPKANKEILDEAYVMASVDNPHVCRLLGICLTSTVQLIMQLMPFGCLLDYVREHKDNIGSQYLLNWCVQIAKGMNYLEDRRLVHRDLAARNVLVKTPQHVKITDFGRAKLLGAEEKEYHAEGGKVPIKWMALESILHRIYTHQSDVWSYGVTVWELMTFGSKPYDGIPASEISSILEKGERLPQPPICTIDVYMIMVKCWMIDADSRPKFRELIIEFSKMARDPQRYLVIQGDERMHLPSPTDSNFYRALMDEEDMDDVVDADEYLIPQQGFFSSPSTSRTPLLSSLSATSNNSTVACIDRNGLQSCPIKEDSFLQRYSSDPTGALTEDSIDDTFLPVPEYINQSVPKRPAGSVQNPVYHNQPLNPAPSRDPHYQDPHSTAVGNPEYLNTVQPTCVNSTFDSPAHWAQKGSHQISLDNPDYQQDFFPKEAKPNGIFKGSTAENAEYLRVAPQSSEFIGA
# experimentalContext: h1975
pIC50: −log10 of the molar value.
metricName: pIC50

Some entries whose results are on file:
COc1cc(N2CCC(N(C)C)CC2)ccc1Nc1ncc(Cl)c(Nc2ccccc2C(=O)C(=O)NO)n1; 6.08
COc1cc(N2CCC(N(C)C)CC2)ccc1Nc1ncc(Cl)c(Nc2ccccc2C(=O)C(=O)N(C)C)n1; 6.07
C=C(CN(C)CCN(C)C)C(=O)Nc1ccc(OC)c(Nc2ncc(Cl)c(Nc3ccccc3C(=O)C(=O)N(C)C)n2)c1; 8.00
COc1cc(N2CCN(C)CC2)ccc1Nc1ncc(Cl)c(Nc2ccccc2C(=O)C(=O)N2CCOCC2)n1; 5.91

A. C=CC(=O)Nc1cccc(Nc2ncc(Cl)c(Nc3ccccc3C(=O)C(=O)N(C)C)n2)c1
B. CNC(=O)C(=O)c1ccccc1Nc1nc(Nc2ccc(N3CCN(C)CC3)c(OC)c2)ncc1Cl
Task: When their pIC50 values are compared, which is larger, A or B ? Provide the label of your selected option as the answer.
Result: A
(A: 8.00, B: 6.82)

a. C=CC(=O)Nc1cc(Nc2ncc(Cl)c(Nc3ccccc3C(=O)C(=O)N(C)C)n2)c(OC)cc1N1CCN(C)CC1
b. COc1cc(N2CCC(N(C)C)CC2)ccc1Nc1ncc(Cl)c(Nc2ccccc2C(=O)C(=O)N2CCOCC2)n1
c. C=CC(=O)Nc1cc(Nc2ncc(Cl)c(Nc3ccccc3C(=O)C(=O)NC)n2)c(F)cc1OC
d. C=CC(=O)N1CCC(NC(=O)C(=O)c2ccccc2Nc2nc(Nc3ccc(F)c(OC)c3)ncc2Cl)CC1
Task: Sort (4 compounds) by pIC50: min first. Return value: ordered labels per request.
Result: b, c, d, a

Source: the Kinase Knowledgebase extract (Sharma et al. 2016)
